- Tested on: Fibroblast
- assayName: Incucyte cell viability with human fibroblast; further: filed as whole numbers so only -1 and 0 and 1 occur
- Format: toxicity, cell-based
- testConditions: 12 h, 10 µM, compound concentration 10 uM, replicate number 2, timepoint 12 hours
propertyName: Growth Rate
# respond with the number and nothing more

Some solved cases for reference:
{"columns": ["compound", "Growth Rate"],
 "data": [
  ["Cl.N#Cc1ccc2[nH]cc(CCCCN3CCN(c4ccc5oc(C(N)=O)cc5c4)CC3)c2c1 [VILAZODONE HYDROCHLORIDE]", 0],
  ["COc1ccc(Cn2ccc3ccc(C(=O)NO)cc32)cc1", 1]
]}

Would you mind telling me what Growth Rate value was observed for COc1cc(-c2cn([C@H]3CCc4c(F)cccc4N(CC(F)(F)F)C3=O)nn2)ccc1-n1cnc(C)c1 ? 0

What does the data say about its Growth Rate? Entry: CN1CCCC(n2nc(Cc3ccc(Cl)cc3)c3ccccc3c2=O)CC1.Cl (centres undefined) [AZELASTINE HYDROCHLORIDE] 0

# Growth Rate lookup, item O=C(NCc1ccccc1)c1ccc(S(=O)(=O)NCc2ccccc2)cc1 1

Entry under review: C=CC(=O)Nc1cccc(C(=O)Nc2ccc(Nc3cc(-c4[nH]c(SC)nc4C)ccn3)cc2)c1 . Reported Growth Rate? 1

Please look up its Growth Rate: CC(C)(C)NCC(O)COc1cccc2[nH]c(=O)[nH]c12.Cl (centres undefined) 0

Would you kindly share the measured Growth Rate for COc1cccc([C@@H](C)NCCCc2ccccc2Cl)c1.Cl [TECALCET HYDROCHLORIDE] ? 0

// returns reported Growth Rate for input COc1cc2c(cc1OCCCN1CCCC1)N=C(N)C21CCC1 0
